ASSAY_METHOD_TEXT: Inhibition of NOS in Sprague-Dawley rat brain by oxyhaemoglobin assay
So I've got a bunch of molecules here, and I need their IC50 values.
Give just the number in nM; leave the unit off.

Determine from records and report IC50 for "O=C(O)c1n[nH]c2ccccc12"
9650

Determine from records and report IC50 for O=C(OC12C3C4CC5C6C4C1C6C1(OCCCN12)C53)c1n[nH]c2ccccc12 (stereo not given)
350

Determine from records and report IC50 for "N#Cc1c2ccccc2cn1C12CC3CC(CC(C3)C1)C2"
291

Determine from records and report IC50 for "O=C(NC12CC3CC(CC(C3)C1)C2)c1n[nH]c2ccccc12"
2530

Determine from records and report IC50 for "N=C(N)NN"
19400
